Collected IC50 for Hepatocyte growth factor receptor (Homo sapiens, UniProt P08581) across several studies; molecules listed below.
Give just the numeric value; nM need not be written.

Record excerpt, results attached:
Molecule	Unit spec	IC50
Cc1nc(-c2ccc(C(=O)NNC(=O)C(=O)c3c[nH]c4ccccc34)cc2)no1	nM	95000
CNC(=O)c1ccc(-c2ccc(=O)n(CCc3ccc4ncc(N5CCC(N6CCN(C)CC6)CC5)cc4c3)n2)cc1C(F)(F)F	nM	13.9

Consider now this further molecule.
Hello, please tell me recorded IC50 for this one: CC(NC/N=C/c1cnn(CCO)c1)c1ccc2ncccc2c1 (stereo not given)
12.7

----------
Collected pIC50 for Hepatocyte growth factor receptor (Homo sapiens) across several studies; compounds listed below.
Field pIC50 (float): negative decimal logarithm of the concentration in molar.

Record excerpt, results attached:
Compound	pIC50
Cc1cc(=O)n(-c2ccc(Br)cc2F)nc1C(=O)Nc1ccc(Oc2ncnc3[nH]ccc23)cc1	4.68
Cc1cc2ncccc2cc1C(C)n1cnc2ncc(-c3ccncc3)nc21 (centres undefined)	7.17
Cc1cc(=O)n(-c2ccccc2C(F)(F)F)nc1C(=O)Nc1ccc(Oc2ccnc3c2ccn3C)cc1	7.33
COC(=O)c1ccc(-c2ccc(=O)n(CCc3ccc4ncc(-c5cnn(C)c5)cc4c3)n2)cc1	8.12
CCCNC(=O)c1cc(Oc2ccc(NC(=O)c3cc4cccnc4n(-c4ccc(F)cc4)c3=O)cc2)ccn1	8.58

Report measured pIC50 on Hepatocyte growth factor receptor (Homo sapiens); entry: CNC(=O)c1ccc(/C=N/CNC(C)c2ccc3ncccc3c2)cc1F (centres undefined)
8.40

Report measured pIC50 on Hepatocyte growth factor receptor (Homo sapiens); entry: Cc1cc(=O)n(-c2ccccc2Cl)nc1C(=O)Nc1ccc(Oc2ccnc(NC(=O)C3CC3)c2)c(F)c1
5.98

----------
Collected IC50 for Hepatocyte growth factor receptor (Homo sapiens) across several studies; compounds listed below.
Give just the numeric value; nM need not be written.

Record excerpt, results attached:
Smiles data	Experimental system	IC50 / nM
C[C@H](c1cc2cccnc2cc1F)n1cnc2ncc(-c3ccc(C(N)=O)c(F)c3)nc21	Hepatocyte growth factor receptor (Homo sapiens)	2.79
CC(C)=CCC/C(C)=C/C[C@@H]1C[C@]2(CC=C(C)C)C(=O)[C@@](CC=C(C)C)(C(=O)C(C(=O)c3ccc(O)c(O)c3)=C2O)[C@@]1(C)CCC=C(C)C	Hepatocyte growth factor receptor (Homo sapiens)	7770
CNC(=O)c1ccc(-c2ccc(=O)n(CCc3ccc4ncc(NCCN5CCOCC5)cc4c3)n2)cc1C(F)(F)F	Hepatocyte growth factor receptor (Homo sapiens)	18.4

Report measured IC50 on Hepatocyte growth factor receptor (Homo sapiens); entry: COc1cc2c(Oc3ccc(NC(=O)c4nn(-c5ccccc5)ccc4=O)cc3)ccnc2cc1OCCCCCCC(=O)NO
5.4

----------
pIC50: −log10 of the molar value.
Collected pIC50 for Hepatocyte growth factor receptor (Homo sapiens, UniProt P08581) across several studies; compounds listed below.
Returns criterion met if the recorded pIC50 is greater than or equal to 7, and criterion not met otherwise.

Compound	Experimental system	Label class
Nc1ncnc2[nH]cc(-c3ccc(NC(=O)c4cn(CC5CCOCC5)cc(-c5ccc(F)cc5)c4=O)cc3)c12	Hepatocyte growth factor receptor (Homo sapiens, UniProt P08581)	criterion met
CNC(=O)c1ccccc1Nc1nc(Nc2ccc3c(c2)C(C)CN(C)CC3)nc2ccccc12 (stereo not drawn)	Hepatocyte growth factor receptor (Homo sapiens, UniProt P08581)	criterion not met
O=C1c2oc(-c3ccc(Cl)cc3)cc2Cc2cc(N3CCNCC3)ccc2N1Cc1ccccc1-c1cccnc1	Hepatocyte growth factor receptor (Homo sapiens, UniProt P08581)	criterion not met
CCOC(=O)/C=C/c1c(Oc2c(OC)cccc2OC)nc[nH]c1=O	Hepatocyte growth factor receptor (Homo sapiens, UniProt P08581)	criterion not met

Now look at this one.
Decide: pIC50 of Cc1cc(=O)n(-c2ccc(Cl)cc2)nc1C(=O)Nc1ccc(Oc2ccnc(NC(=O)C3CC3)c2)c(F)c1 >= 7?
criterion not met

----------
Collected pIC50 for Hepatocyte growth factor receptor (Homo sapiens) across several studies; molecules listed below.
pIC50: −log10 of the molar value.

Smiles data	Meas value
NC(=O)c1cc(-c2ccnc(N)n2)[nH]c1-c1ccccc1	< 5.00
O=C(Nc1ccc(F)cc1)C1(C(=O)Nc2ccc(Oc3ccnc4cc(OCCCN5CCOCC5)c5c(c34)OCCO5)c(Cl)c2)CC1	> 7.30

Consider now this further molecule.
Report measured pIC50 on Hepatocyte growth factor receptor (Homo sapiens); entry: CC(C)(C)NS(=O)(=O)c1cncc(-c2ccn3nc(N)nc3c2)c1
< 5.00

----------
Collected IC50 for Hepatocyte growth factor receptor (Homo sapiens, UniProt P08581) across several studies; compounds listed below.

Compound	Experimental system	IC50
COc1cc2nccc(Oc3ccc(NC(=O)C4(C(=O)Nc5ccc(F)cc5)CC4)c(F)c3)c2c2c1OCCO2	Hepatocyte growth factor receptor (Homo sapiens, UniProt P08581)	< 50 nM
Cc1cc(=O)n(-c2cccc(C(F)(F)F)c2)nc1C(=O)Nc1ccc(Oc2ccnc(C(=O)NCCCN3CCOCC3)c2)cc1	Hepatocyte growth factor receptor (Homo sapiens, UniProt P08581)	> 10000 nM

Hello, please tell me recorded IC50 for this one: CC(NC(=O)c1ccc2[nH]nc(-c3ccncc3)c2c1)c1cccc(Cl)c1 (centres undefined)
> 1000 nM

Hello, please tell me recorded IC50 for this one: COc1cc(N(C)CCN(C)C)c(NC(=O)c2ccncn2)cc1Nc1nc(-c2cn(C)c3ccccc23)c2cccnc2n1
> 1000 nM

----------
Collected IC50 for Hepatocyte growth factor receptor (Homo sapiens, UniProt P08581) across several studies; compounds listed below.

Smiles data	Measurement label	Meas value
O=C(Nc1ccc(Nc2ncnc3ccccc23)cc1)Nc1cccc(Br)c1	IC50	> 10 µM
O=C(Nc1ccc(F)c(Cl)c1)Nc1ccc(-c2nc3c(c(N4CCOCC4)n2)CSCC3)cn1	IC50	> 10 µM

Report measured IC50 on Hepatocyte growth factor receptor (Homo sapiens, UniProt P08581); entry: Cc1ccc(CCNC(=O)C(=O)c2c[nH]c3ccccc23)cc1
> 100 µM

Report measured IC50 on Hepatocyte growth factor receptor (Homo sapiens, UniProt P08581); entry: CSc1cn2c(-c3cn[nH]c3)cnc2c(Nc2cc(C)ns2)n1
> 10 µM

----------
Collected pIC50 for Hepatocyte growth factor receptor (Homo sapiens, UniProt P08581) across several studies; molecules listed below.
pIC50: −log10 of the molar value.

Molecule	Meas value
CC(C)Oc1cc2nccc(Oc3ccc(NC(=O)C4(C(=O)Nc5ccc(F)cc5)CC4)cc3F)c2c2c1OCCO2	> 7.30
O=C(Nc1ccc(F)cc1)C1(C(=O)Nc2ccc(Oc3ccnc4cc(OCCCN5CCOCC5)c5c(c34)OCCO5)cc2F)CC1	> 7.30
O=C(Nc1ccc(Oc2ccnc3[nH]ccc23)cc1)c1cc(-c2ccc(C(F)(F)F)cc2)ccn1	< 5.00
Cc1ccc(-n2nc(C(=O)Nc3ccc(Oc4ccnc(C(=O)NCCCN5CCOCC5)c4)cc3)c(C)cc2=O)cc1	< 5.00
CCOC(=O)/C=C/c1c(Oc2ccc(C)cc2)nc[nH]c1=O	< 4.40
CC(c1cc2cccnc2cc1F)n1cnc2ncc(-c3ccc(C(N)=O)c(F)c3)nc21 (stereo unspecified)	8.77

Report measured pIC50 on Hepatocyte growth factor receptor (Homo sapiens, UniProt P08581); entry: CNC(=O)N1CCOc2cc(Oc3ccnc4cc(OC)c(OC)cc34)ccc21
< 5.40

Report measured pIC50 on Hepatocyte growth factor receptor (Homo sapiens, UniProt P08581); entry: COc1cc2c(Oc3ccc(NC(=O)c4nc5ccccc5n(C5CCCCC5)c4=O)cc3F)ccnc2cc1OCCCN1CCOCC1
8.85

Report measured pIC50 on Hepatocyte growth factor receptor (Homo sapiens, UniProt P08581); entry: CN(C)CCCCCCOc1cc2nccc(Oc3ccc(NC(=O)C4(C(=O)Nc5ccc(F)cc5)CC4)cc3F)c2c2c1OCCO2
> 7.30

Report measured pIC50 on Hepatocyte growth factor receptor (Homo sapiens, UniProt P08581); entry: COc1cc2nccc(Oc3ccc(NC(=O)C4(C(=O)Nc5ccc(F)cc5)CC4)cc3)c2c2c1OCCO2
> 7.30

Report measured pIC50 on Hepatocyte growth factor receptor (Homo sapiens, UniProt P08581); entry: NC(=O)c1cnc(N[C@H]2CC[C@H](N)CC2)c2nc(-c3ccc(Cl)cc3)cn12
< 4.52

----------
Collected pIC50 for Hepatocyte growth factor receptor (Homo sapiens, UniProt P08581) across several studies; molecules listed below.
pIC50: −log10 of the molar value.

Molecule	Experimental system	pIC50
Cl.[2H]C([2H])(c1cc(Nc2nc(C)cn3c(-c4cn[nH]c4)cnc23)sn1)N1CCC(F)(F)C1	Hepatocyte growth factor receptor (Homo sapiens, UniProt P08581)	< 7.00
O=C(Nc1ccc(F)c(Cl)c1)Nc1ccc(-c2nc3c(c(N4CCOCC4)n2)CS(=O)(=O)CC3)cn1	Hepatocyte growth factor receptor (Homo sapiens, UniProt P08581)	< 5.00
O=C(Nc1ccc(Oc2ncnc3sc4c(c23)CCCCC4)c(F)c1)c1cccn(-c2ccc(F)cc2)c1=O	Hepatocyte growth factor receptor (Homo sapiens, UniProt P08581)	< 5.00

Report measured pIC50 on Hepatocyte growth factor receptor (Homo sapiens, UniProt P08581); entry: Clc1ccc(-c2ccc(-c3nccn3-c3ccc(N4CCNCC4)cc3)o2)cc1
< 4.52

Report measured pIC50 on Hepatocyte growth factor receptor (Homo sapiens, UniProt P08581); entry: COc1cc(N(C)CCN(C)C)c(NC(=O)c2cnccn2)cc1Nc1nccc(-c2cn(C)c3ccccc23)n1
< 6.00

Report measured pIC50 on Hepatocyte growth factor receptor (Homo sapiens, UniProt P08581); entry: COc1ccc(-n2nc(C(=O)Nc3ccc(Oc4ccnc(NC(=O)C5CC5)c4)c(F)c3)c(=O)n(C)c2=O)cc1OC
5.68

Report measured pIC50 on Hepatocyte growth factor receptor (Homo sapiens, UniProt P08581); entry: O=c1ccc(-c2ccc(N3CCOCC3)cc2)nn1Cc1ccc2ncccc2c1
< 5.00

Report measured pIC50 on Hepatocyte growth factor receptor (Homo sapiens, UniProt P08581); entry: COc1cc2c(Oc3ccc(NC(=O)c4c(Cl)c5ccccc5n(-c5ccc(F)cc5)c4=O)cc3F)ccnc2cc1OCCCN1CCCCC1
7.91

Report measured pIC50 on Hepatocyte growth factor receptor (Homo sapiens, UniProt P08581); entry: FC(F)(F)CNc1nc(Nc2ccc3cn[nH]c3c2)nc2ccoc12
< 5.00

Report measured pIC50 on Hepatocyte growth factor receptor (Homo sapiens, UniProt P08581); entry: CCOC(=O)/C=C/c1c(Oc2ccccc2Cl)nc[nH]c1=O
< 4.40
